Test system: CCRF-CEM
experiment: Growth inhibition of CCRF-CEM human leukemic lymphoblasts
Assay type: functional, cell-based
measurement name: IC50 (nM)

See these solved cases before continuing.
{"molecule": "Nc1nc(N)c2nc(CNc3ccc(C(=O)NC(CCCNC(=O)c4cccc(C(=O)O)c4)C(=O)O)cc3)cnc2n1 (centres undefined)", "units text": "nM", "IC50": 7.5}
{"molecule": "Nc1nc(N)c2nc(CNc3ccc(C(=O)NC(CCSCNC(=O)c4ccccc4C(=O)O)C(=O)O)cc3)cnc2n1 (centres undefined)", "units text": "nM", "IC50": 5}
{"molecule": "CCC(Cc1cnc2nc(N)nc(N)c2n1)c1ccc(C(=O)NC(CCCNC(=O)c2ccccc2C(=O)O)C(=O)O)cc1 (centres undefined)", "units text": "nM", "IC50": 1.2}
{"molecule": "CCC(Cc1cnc2nc(N)nc(N)c2n1)c1ccc(C(=O)N[C@@H](CCC(=O)O)C(=O)O)cc1 (some centres undefined) [EDATREXATE]", "units text": "nM", "IC50": 3.3}
{"molecule": "Nc1nc(N)c2nc(CNc3ccc(C(=O)NC(CCCNC(=O)c4ccc(C(=O)O)cc4)C(=O)O)cc3)cnc2n1 (centres undefined)", "units text": "nM", "IC50": 55}
{"molecule": "Nc1nc(N)c2nc(CNc3ccc(C(=O)NC(CCNC(=O)c4ccccc4C(=O)O)C(=O)O)cc3)cnc2n1 (centres undefined)", "units text": "nM", "IC50": 5.5}

a: Nc1nc(N)c2nc(CNc3ccc(C(=O)NC(CCCCNC(=O)c4ccccc4C(=O)O)C(=O)O)cc3)cnc2n1 (centres undefined)
b: Nc1nc(N)c2nc(CNc3ccc(C(=O)NC(CSCNC(=O)c4ccccc4C(=O)O)C(=O)O)cc3)cnc2n1 (centres undefined)
[ask] Returns: the argument ( a or b ) having the larger IC50. Please indicate the selected item by its label.
[reply] b

1: Nc1nc(N)c2nc(CNc3ccc(C(=O)NC(CNC(=O)c4ccccc4C(=O)O)C(=O)O)cc3)cnc2n1 (centres undefined)
2: CC(Cc1cnc2nc(N)nc(N)c2n1)c1ccc(C(=O)NC(CCCNC(=O)c2ccccc2C(=O)O)C(=O)O)cc1 (centres undefined)
3: CCC(Cc1cnc2nc(N)nc(N)c2n1)(C(=O)OC)c1ccc(C(=O)NC(CCCNC(=O)c2ccccc2C(=O)O)C(=O)O)cc1 (centres undefined)
4: Nc1nc(N)c2nc(CNc3ccc(C(=O)NC(CCCNC(=O)c4ccccc4C(=O)O)C(=O)O)c4ccccc34)cnc2n1 (centres undefined)
[ask] Rank ascending by IC50. Please express your ranking as an ordered list of the labels.
[reply] 2, 4, 1, 3
(2: 0.63 nM, 4: 1.2 nM, 1: 5.1 nM, 3: 54 nM)
